Assay: Nonclinical pharmacokinetics in rats
Parameters: species or system rat
Settings: female, rat, in vivo, iv, t1/2 alpha
MEASURED PARAMETER: half-life

Problem: Look up half-life: H-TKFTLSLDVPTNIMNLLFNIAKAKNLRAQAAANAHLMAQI-NH2 [SEQ ID NO: 1]
Result: 1.9 min

---

Target: human CRHR2 (Homo sapiens)
Construct: expressed in transfected cells
Sequence (Q13324 1-411): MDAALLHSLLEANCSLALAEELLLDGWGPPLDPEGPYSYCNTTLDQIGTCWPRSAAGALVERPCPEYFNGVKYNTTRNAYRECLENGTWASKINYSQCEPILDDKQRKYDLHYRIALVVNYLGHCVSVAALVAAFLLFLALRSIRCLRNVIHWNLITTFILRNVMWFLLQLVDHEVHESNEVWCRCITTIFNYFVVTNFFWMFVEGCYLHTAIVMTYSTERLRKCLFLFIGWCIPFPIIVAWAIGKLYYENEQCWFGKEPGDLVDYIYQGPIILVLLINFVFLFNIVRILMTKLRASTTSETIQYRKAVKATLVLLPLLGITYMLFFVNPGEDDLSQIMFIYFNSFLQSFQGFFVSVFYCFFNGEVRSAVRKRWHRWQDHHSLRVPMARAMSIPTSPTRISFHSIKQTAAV
Test: cAMP assay, h-CRHR2 transfected SK-N-MC cells
Assay type: cell-based
Details: Table 13; h-SCP control pA50 minus test compound pA50 within the same assay batch
Procedure: The concentration required for 50% maximum effect (A50) was 0.4 nM. Human CRHR1 (accession number X72304) or CRHR2 (accession number U34587) were cloned into pcDNA3.1/Zeo expression vector and stably transfected into SK—N-MC cells by electroporation. […] Media containing released intracellular cAMP was transferred to a 96-well flash plate coated with scintillant fluid containing an anti-cAMP antibody. […] [^125I]-cAMP was measured on a TopCount scintillation counter (Perkin Elmer, Mass., U.S.A). […]
Where no end group is shown, it is not given here.
MEASURED PARAMETER: Log DR [M]
Reply briefly: the number, and no unit.

Here's what some known entries look like.
In [3]: df
Out[3]:
                                  substance  test_value
0  H-TKFTLSLDVPTNIMCLLFNIAKAKNLRAQAAANAHLMAQI-NH2 [SEQ ID NO: 16]        0.76
1  TKFTLSLDVPTNIMNLLFNIAKAKNCRAQAAANAHLMAQI-NH2 [SEQ ID NO: 27]        0.76
2  TKFTLSLDVPTNIMNLLFNIAKAKNLRAQAAANAHLMACI-NH2 [SEQ ID NO: 40]        0.55

Problem: Entry H-TKFTLSLDVPTNIMNLLCNIAKAKNLRAQAAANAHLMAQI-NH2 [SEQ ID NO: 19] has what Log DR [M]?
Result: 1.67

Problem: Using the record for TKFTLSLDVPTCIMNLLFNIAKAKNLRAQAAANAHLMAQI-NH2 [SEQ ID NO: 13] , report its Log DR [M].
Result: −0.01

Problem: May I ask what Log DR [M] has been recorded for TKFTLSLDVPTNIMNLLFNIAKAKNLRAQCAANAHLMAQI-NH2 [SEQ ID NO: 31] ?
Result: 1.61

Problem: Entry TKFTCSLDVPTNIMNLLFNIAKAKNLRAQAAANAHLMAQI-NH2 [SEQ ID NO: 6] : reported Log DR [M] = ?
Result: 0.61

Problem: Request the reported Log DR [M] associated with TKFTLSLDVPTNIMNLLFNCAKAKNLRAQAAANAHLMAQI-NH2 [SEQ ID NO: 21]
Result: 0.77
